assay: inhibitors of the yeast RAM network, pilot screen, dse1pr::URA3 reporter, 5-FOA selection (AID 869);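 note: 0% = DMSO wells with no growth and 100% = 10 µM 1-NA-PP1 with full growth; RAM network block rescues cells from 5-FOA so hits raise OD615 growth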; conditions: S. cerevisiae dse1pr::URA3 5-FOA growth, OD615, 2 d; at 10 µM; stronger effect = higher value; strain carries analog-sensitive mutant Cbk1 kinase
Metric: inhibition (%)
Respond with the bare value in %.

{"Compound": "Cc1ccc(Cn2c(Sc3nccc(C)n3)nc3c2c(=O)[nH]c(=O)n3C)cc1", "Metric": "inhibition", "Value unit": "%", "Result value": 2.89}
{"Compound": "O=S(=O)(Nc1cccc(-c2nc3cccnc3s2)c1)c1ccc2c(c1)OCCO2", "Metric": "inhibition", "Value unit": "%", "Result value": 3.69}
{"Compound": "N#Cc1c(N)nc2c(c1-c1ccc3c(c1)OCO3)CCCCCC2", "Metric": "inhibition", "Value unit": "%", "Result value": 2.68}

-- ask Fill blank: measured inhibition of the compound `CCOc1c(Br)cc(C(N)=O)cc1OC` is ____.
-- reply 0.87

-- ask And the next one, `O=C(CNS(=O)(=O)c1ccc(C(=O)N2CCCCC2)cc1)N1CCCCC1` ?
-- reply -0.19

-- ask And the next one, `NC(=O)CCn1nc(-c2ccccc2)c2ccccc2c1=O` ?
-- reply 0.31

-- ask And the next one, CC(C)C(NS(=O)(=O)c1ccc2c3c(cccc13)C(=O)N2)C(=O)O (stereo unspecified) ?
-- reply 1.71

-- ask And the next one, O=C(O)C1CCCCC1C(=O)NCc1cn2ccccc2n1 (stereo unspecified) ?
-- reply 0.43

-- ask And the next one, `COC(=O)c1c(NC(=O)Cc2cccs2)sc(C)c1C` ?
-- reply 1.54

-- ask And the next one, `COc1ccc2cc(C(=O)Nc3c(C)n(C)n(-c4ccccc4)c3=O)sc(=O)c2c1OC` ?
-- reply 2.33

-- ask And the next one, `CCC(=O)N=c1sc2cc(F)cc(F)c2n1C` ?
-- reply 1.4
